Please respond with reported viability at 0.01 µM for every item in the list.
# Tested on: non-senescent control IMR90 ER:RAS cells
# protocol_description: Nuclei count (Hoechst, high content imaging) senolytic assay, OIS model, non-senescent control cells
# Format: cell-based, human
# measurement_parameters: Homo sapiens, IMR-90, Control; log (dose) [M] -8; read-out: % Cell Survival
Express it in %; write the number only.

Any idea what viability at 0.01 µM was measured for O=c1cc(-c2ccc(O)cc2)oc2cc(O)c(O)c(O)c12 ?
107

Further, for COc1cc(/C=C/C(=O)O[C@H]2CC[C@]34C[C@]35CC[C@]3(C)[C@@H]([C@H](C)CCC=C(C)C)CC[C@@]3(C)[C@@H]5CC[C@H]4C2(C)C)ccc1O ?
100

Further, for CO[C@H]1C[C@@H]2CC[C@@H](C)[C@@](O)(O2)C(=O)C(=O)N2CCCC[C@H]2C(=O)O[C@H]([C@H](C)C[C@@H]2CC[C@@H](OP(C)(C)=O)[C@H](OC)C2)CC(=O)[C@H](C)/C=C(\C)[C@@H](O)[C@@H](OC)C(=O)[C@H](C)C[C@H](C)/C=C/C=C/C=C/1C [Ridaforolimus, ridaforolimus, reference compound] ?
113

Further, for CO[C@H]1C[C@@H]2CC[C@@H](C)[C@@](O)(O2)C(=O)C(=O)N2CCCC[C@H]2C(=O)O[C@H]([C@H](C)C[C@@H]2CC[C@@H](OCCO)[C@H](OC)C2)CC(=O)[C@H](C)/C=C(\C)[C@@H](O)[C@@H](OC)C(=O)[C@H](C)C[C@H](C)/C=C/C=C/C=C/1C [Everolimus, everolimus, reference compound] ?
118

Further, for O=c1oc2c(O)c(O)cc3c(=O)oc4c(O)c(O)cc1c4c23 ?
115

Further, for Cc1cc2c(C(C)C)c(O)c(O)c(C=O)c2c(O)c1-c1c(C)cc2c(C(C)C)c(O)c(O)c(C=O)c2c1O ?
104

Further, for O=c1c(O)c(-c2ccc(O)cc2)oc2c(O)c(O)cc(O)c12 ?
100

###

# Tested on: senescent IMR90 ER:RAS cells (4-OHT-induced)
# protocol_description: Nuclei count (Hoechst, high content imaging) senolytic assay, oncogene-induced senescence (OIS) model, senescent cells
# Type: cell-based, human
# measurement_parameters: Senescent, log (dose) [M] -8, 72 h, mean n=3 (Fig 3C)
readout_label: Mean % Cell Survival (%)
Express it in %; write the number only.

Any idea what Mean % Cell Survival was measured for Cc1c(NC(=O)OC[C@@H]2COCCN2)cn2ncnc(Nc3ccc4c(cnn4Cc4cccc(F)c4)c3)c12.Cl.Cl [BMS 599626 2HCL, BMS 599626 dihydrochloride] ?
114.131

Further, for CC(C)=CCc1c(O)cc2oc3cc(O)c(O)c(CC=C(C)C)c3c(=O)c2c1O [Gamma mangostin, gamma mangostin] ?
105.37

Further, for CO[C@H]1C[C@H](O[C@H]2CC[C@]3(C)[C@H]4CC[C@]5(C)[C@@H](C6=CC(=O)OC6)CC[C@]5(O)[C@@H]4CC[C@]3(O)C2)O[C@H](C)[C@H]1O[C@@H]1O[C@H](CO)[C@@H](O)[C@H](O)[C@H]1O [Periplocin, periplocin] ?
96.9401

Further, for C=Cc1c(C)c2cc3nc(cc4[nH]c(cc5nc(cc1[nH]2)C(C)=C5CCC(=O)O)c(CCC(=O)OC)c4C)[C@@]1(C)C3=CC=C(C(=O)OC)[C@H]1C(=O)OC [Verteporfin, verteporfin, reference compound] ?
92.2297

###

# System: senescent IMR90 ER:RAS cells (4-OHT-induced)
# protocol_description: Nuclei count (Hoechst, high content imaging) senolytic assay, oncogene-induced senescence (OIS) model, senescent cells
# Type: cell-based, human
# measurement_parameters: Homo sapiens, IMR-90, 72 h, Senescent, log (dose) [M] -5.66, 72 h, mean n=3 (Fig 3C); read-out: Mean % Cell Survival
Where a name gives a salt, the structure may show the parent alone.
readout_label: viability at 2.188 µM

Any idea what viability at 2.188 µM was measured for CO[C@H]1C[C@@H]2CC[C@@H](C)[C@@](O)(O2)C(=O)C(=O)N2CCCC[C@H]2C(=O)O[C@H]([C@H](C)C[C@@H]2CC[C@@H](OCCO)[C@H](OC)C2)CC(=O)[C@H](C)/C=C(\C)[C@@H](O)[C@@H](OC)C(=O)[C@H](C)C[C@H](C)/C=C/C=C/C=C/1C [Everolimus, everolimus, reference compound] ?
87.3%

Further, for CO[C@H]1C[C@@H]2CC[C@@H](C)[C@@](O)(O2)C(=O)C(=O)N2CCCC[C@H]2C(=O)O[C@H]([C@H](C)C[C@@H]2CC[C@@H](O)[C@H](OC)C2)CC(=O)[C@H](C)/C=C(\C)[C@@H](O)[C@@H](OC)C(=O)[C@H](C)C[C@H](C)/C=C/C=C/C=C/1C [Rapamycin, rapamycin, reference compound] ?
114%

Further, for O=c1c(O)c(-c2ccc(O)cc2O)oc2cc(O)cc(O)c12 ?
96.2%

Further, for Cc1cc2c(C(C)C)c(O)c(O)c(C=O)c2c(O)c1-c1c(C)cc2c(C(C)C)c(O)c(O)c(C=O)c2c1O ?
156%

Further, for O=c1oc2c(O)c(O)cc3c(=O)oc4c(O)c(O)cc1c4c23 ?
113%

Further, for CC[C@]1(O)C[C@@H]2CN(CCc3c([nH]c4ccccc34)[C@@](C(=O)OC)(c3cc4c(cc3OC)N(C)[C@H]3[C@@](O)(C(=O)OC)[C@H](OC(C)=O)[C@]5(CC)C=CCN6CC[C@]43[C@@H]65)C2)C1 [Vinblastine sulfate, vinblastine sulfate, reference compound] ?
58.1%

Further, for O=c1c(O)c(-c2ccc(O)cc2)oc2c(O)c(O)cc(O)c12 ?
76.1%

###

# System: senescent IMR90 ER:RAS cells (4-OHT-induced)
# protocol_description: Nuclei count (Hoechst, high content imaging) senolytic assay, oncogene-induced senescence (OIS) model, senescent cells
# Assay type: cell-based, human
# measurement_parameters: Senescent, log (dose) [M] -7.66, 72 h, mean n=3 (Fig 3C)
Please respond with reported Mean % Cell Survival for every item in the list.
Express it in %; write the number only.

Any idea what Mean % Cell Survival was measured for Cc1c(NC(=O)OC[C@@H]2COCCN2)cn2ncnc(Nc3ccc4c(cnn4Cc4cccc(F)c4)c3)c12.Cl.Cl [BMS 599626 2HCL, BMS 599626 dihydrochloride] ?
111.054

Further, for C=Cc1c(C)c2cc3nc(cc4[nH]c(cc5nc(cc1[nH]2)C(C)=C5CCC(=O)O)c(CCC(=O)OC)c4C)[C@@]1(C)C3=CC=C(C(=O)OC)[C@H]1C(=O)OC [Verteporfin, verteporfin, reference compound] ?
103.159

Further, for CC(C)=CCc1c(O)cc2oc3cc(O)c(O)c(CC=C(C)C)c3c(=O)c2c1O ?
106.714

Further, for CO[C@H]1C[C@H](O[C@H]2CC[C@]3(C)[C@H]4CC[C@]5(C)[C@@H](C6=CC(=O)OC6)CC[C@]5(O)[C@@H]4CC[C@]3(O)C2)O[C@H](C)[C@H]1O[C@@H]1O[C@H](CO)[C@@H](O)[C@H](O)[C@H]1O ?
54.5059

###

Please respond with reported viability at 0.1 µM for every item in the list.
# System: non-senescent control IMR90 ER:RAS cells
# protocol_description: Nuclei count (Hoechst, high content imaging) senolytic assay, OIS model, non-senescent control cells
# Assay type: cell-based, human
# measurement_parameters: Homo sapiens, IMR-90, 72 h, Control, log (dose) [M] -7, 72 h, mean n=3 (Fig 3C); read-out: Mean % Cell Survival
# Description: To test for senolytic activity, we compared the effect of each compound on the total cell number (automated high content image-based analysis of total number of nuclei per well) in non-senescent and senescent IMR90 ER:RAS cultures treated with the top hits from the computational screen (Figs. 2e and 3a–d and Supplementary Fig. 4a–c). The drop in cell number compared to untreated controls is indicated by the nuclei count and reflects cell death[13],[15]. […]
Where a name gives a salt, the structure may show the parent alone.
Express it in %; write the number only.

Any idea what viability at 0.1 µM was measured for O=c1oc2c(O)c(O)cc3c(=O)oc4c(O)c(O)cc1c4c23 ?
102

Further, for CC[C@]1(O)C[C@@H]2CN(CCc3c([nH]c4ccccc34)[C@@](C(=O)OC)(c3cc4c(cc3OC)N(C)[C@H]3[C@@](O)(C(=O)OC)[C@H](OC(C)=O)[C@]5(CC)C=CCN6CC[C@]43[C@@H]65)C2)C1 [Vinblastine sulfate, vinblastine sulfate, reference compound] ?
104

Further, for COc1cc(/C=C/C(=O)O[C@H]2CC[C@]34C[C@]35CC[C@]3(C)[C@@H]([C@H](C)CCC=C(C)C)CC[C@@]3(C)[C@@H]5CC[C@H]4C2(C)C)ccc1O ?
109

Further, for C[C@@H]1O[C@@H](O[C@H]2C[C@@H](O)[C@]3(CO)[C@H]4[C@H](O)C[C@]5(C)[C@@H](C6=CC(=O)OC6)CC[C@]5(O)[C@@H]4CC[C@]3(O)C2)[C@H](O)[C@H](O)[C@H]1O [Ouabain, ouabain, reference compound] ?
60.8

Further, for COC[C@H]1C[C@@H](c2nc(-c3ccc4c(c3)COc3cc5c(ccc6nc([C@@H]7CC[C@H](C)N7C(=O)[C@@H](NC(=O)OC)C(C)C)[nH]c65)cc3-4)c[nH]2)N(C(=O)[C@H](NC(=O)OC)c2ccccc2)C1 [Velpatasvir, velpatasvir, reference compound] ?
98.3

Further, for O=c1c(O)c(-c2ccc(O)cc2)oc2c(O)c(O)cc(O)c12 ?
94.6

Further, for Cc1cc2c(C(C)C)c(O)c(O)c(C=O)c2c(O)c1-c1c(C)cc2c(C(C)C)c(O)c(O)c(C=O)c2c1O ?
126

Further, for Cc1cnc(C(=O)N[C@H]2CCCCC/C=C\[C@@H]3C[C@@]3(C(=O)NS(=O)(=O)C3CC3)NC(=O)[C@@H]3C[C@@H](Oc4nc5ccccc5c5ccccc45)CN3C2=O)cn1 [Paritaprevir, paritaprevir, reference compound] ?
81.5

Further, for CO[C@H]1C[C@H](O[C@H]2CC[C@@]3(C)[C@H](CC[C@@H]4[C@@H]3CC[C@]3(C)[C@@H](C5=CC(=O)OC5)[C@@H](OC(C)=O)C[C@]43O)C2)O[C@@H](C)[C@@H]1O ?
34.7

Further, for CO[C@H]1C[C@@H]2CC[C@@H](C)[C@@](O)(O2)C(=O)C(=O)N2CCCC[C@H]2C(=O)O[C@H]([C@H](C)C[C@@H]2CC[C@@H](OCCO)[C@H](OC)C2)CC(=O)[C@H](C)/C=C(\C)[C@@H](O)[C@@H](OC)C(=O)[C@H](C)C[C@H](C)/C=C/C=C/C=C/1C [Everolimus, everolimus, reference compound] ?
109

Further, for COc1cc(O)c2c(=O)cc(-c3ccc(OC)c(-c4c(O)cc(O)c5c(=O)cc(-c6ccc(O)cc6)oc45)c3)oc2c1 ?
85.1

Further, for O=c1cc(-c2ccc(O)cc2)oc2cc(O)c(O)c(O)c12 ?
118

Further, for O=c1c(O)c(-c2ccc(O)cc2O)oc2cc(O)cc(O)c12 ?
91.3

Further, for CO[C@H]1C[C@@H]2CC[C@@H](C)[C@@](O)(O2)C(=O)C(=O)N2CCCC[C@H]2C(=O)O[C@H]([C@H](C)C[C@@H]2CC[C@@H](OP(C)(C)=O)[C@H](OC)C2)CC(=O)[C@H](C)/C=C(\C)[C@@H](O)[C@@H](OC)C(=O)[C@H](C)C[C@H](C)/C=C/C=C/C=C/1C [Ridaforolimus, ridaforolimus, reference compound] ?
77.4

Further, for Cc1c(-c2c(F)cc(C(N)=O)c3[nH]c4c(c23)CC[C@H](C(C)(C)O)C4)cccc1-n1c(=O)c2cccc(F)c2n(C)c1=O ?
108

Further, for CO[C@H]1C[C@@H]2CC[C@@H](C)[C@@](O)(O2)C(=O)C(=O)N2CCCC[C@H]2C(=O)O[C@H]([C@H](C)C[C@@H]2CC[C@H](n3cnnn3)[C@H](OC)C2)CC(=O)[C@H](C)/C=C(\C)[C@@H](O)[C@@H](OC)C(=O)[C@H](C)C[C@H](C)/C=C/C=C/C=C/1C [Zotarolimus, zotarolimus, reference compound] ?
95.5

Further, for CO[C@H]1C[C@@H]2CC[C@@H](C)[C@@](O)(O2)C(=O)C(=O)N2CCCC[C@H]2C(=O)O[C@H]([C@H](C)C[C@@H]2CC[C@@H](O)[C@H](OC)C2)CC(=O)[C@H](C)/C=C(\C)[C@@H](O)[C@@H](OC)C(=O)[C@H](C)C[C@H](C)/C=C/C=C/C=C/1C [Rapamycin, rapamycin, reference compound] ?
92.6
